- Measured target: S100A4 (Homo sapiens, UniProt P26447)
- Construct: made in house; host or cells: Escherichia coli BL21(DE3)
- Sequence (P26447 whole entry): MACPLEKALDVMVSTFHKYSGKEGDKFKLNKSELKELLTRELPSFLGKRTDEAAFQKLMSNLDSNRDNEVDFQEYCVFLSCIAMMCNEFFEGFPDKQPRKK
- Method: Pull-down assay with immobilized protein and LSM libraries
- Assay type: binding
- Condition set: H14 library; 1:1 binding assumed; read-out: Surface mapping KD (apparent)
pKd: −log10 of the molar value.
Some molecules, each annotated with its measured pKd.
Measured parameter: pKd

INSERT INTO results (substance_smiles, measured_target, measured_parameter, numeric_readout) VALUES
  ('C[C@@H](O)[C@@H](CC(=O)N[C@H]1CCCC[C@@H]1C(N)=O)NC(=O)[C@H]1CCCC[C@@H]1NC(=O)[C@H]1CCCC[C@@H]1NC(=O)C[C@H](CO)NC(=O)[C@H]1CCCC[C@@H]1N', 'S100A4 (Homo sapiens, UniProt P26447)', 'pKd', 3.49),
  ('N=C(N)NCCC[C@@H](CC(=O)N[C@H]1CCCC[C@@H]1C(N)=O)NC(=O)[C@H]1CCCC[C@@H]1NC(=O)[C@H]1CCCC[C@@H]1NC(=O)C[C@H](Cc1c[nH]c2ccccc12)NC(=O)[C@H]1CCCC[C@@H]1N', 'S100A4 (Homo sapiens, UniProt P26447)', 'pKd', 4.09),
  ('CC(C)[C@@H](CC(=O)N[C@H]1CCCC[C@@H]1C(N)=O)NC(=O)[C@H]1CCCC[C@@H]1NC(=O)[C@H]1CCCC[C@@H]1NC(=O)C[C@H](Cc1ccc(O)cc1)NC(=O)[C@H]1CCCC[C@@H]1N', 'S100A4 (Homo sapiens, UniProt P26447)', 'pKd', 4.64),
  ('NCCCC[C@@H](CC(=O)N[C@H]1CCCC[C@@H]1C(N)=O)NC(=O)[C@H]1CCCC[C@@H]1NC(=O)[C@H]1CCCC[C@@H]1NC(=O)C[C@H](CCC(N)=O)NC(=O)[C@H]1CCCC[C@@H]1N', 'S100A4 (Homo sapiens, UniProt P26447)', 'pKd', 3.42),
  ('N=C(N)NCCC[C@@H](CC(=O)N[C@H]1CCCC[C@@H]1C(=O)N[C@H]1CCCC[C@@H]1C(=O)N[C@H](CC(=O)N[C@H]1CCCC[C@@H]1C(N)=O)Cc1ccc(O)cc1)NC(=O)[C@H]1CCCC[C@@H]1N', 'S100A4 (Homo sapiens, UniProt P26447)', 'pKd', 3.95),
  ('C[C@@H](CC(=O)N[C@H]1CCCC[C@@H]1C(N)=O)NC(=O)[C@H]1CCCC[C@@H]1NC(=O)[C@H]1CCCC[C@@H]1NC(=O)C[C@H](Cc1c[nH]c2ccccc12)NC(=O)[C@H]1CCCC[C@@H]1N', 'S100A4 (Homo sapiens, UniProt P26447)', 'pKd', 4.26),
  ('CC[C@H](C)[C@@H](CC(=O)N[C@H]1CCCC[C@@H]1C(=O)N[C@H]1CCCC[C@@H]1C(=O)N[C@H](CC(=O)N[C@H]1CCCC[C@@H]1C(N)=O)[C@@H](C)O)NC(=O)[C@H]1CCCC[C@@H]1N', 'S100A4 (Homo sapiens, UniProt P26447)', 'pKd', 4.72),
  ('CC(C)C[C@@H](CC(=O)N[C@H]1CCCC[C@@H]1C(=O)N[C@H]1CCCC[C@@H]1C(=O)N[C@H](CC(=O)N[C@H]1CCCC[C@@H]1C(N)=O)Cc1c[nH]c2ccccc12)NC(=O)[C@H]1CCCC[C@@H]1N', 'S100A4 (Homo sapiens, UniProt P26447)', 'pKd', 5.10),
  ('NCCCC[C@@H](CC(=O)N[C@H]1CCCC[C@@H]1C(N)=O)NC(=O)[C@H]1CCCC[C@@H]1NC(=O)[C@H]1CCCC[C@@H]1NC(=O)C[C@H](Cc1ccccc1)NC(=O)[C@H]1CCCC[C@@H]1N', 'S100A4 (Homo sapiens, UniProt P26447)', 'pKd', 3.85);
